Sourced from ChEMBL document CHEMBL4350952

Biological target: Phosphatidylinositol 4,5-bisphosphate 3-kinase catalytic subunit delta isoform (Homo sapiens)
Sequence (O00329 whole entry): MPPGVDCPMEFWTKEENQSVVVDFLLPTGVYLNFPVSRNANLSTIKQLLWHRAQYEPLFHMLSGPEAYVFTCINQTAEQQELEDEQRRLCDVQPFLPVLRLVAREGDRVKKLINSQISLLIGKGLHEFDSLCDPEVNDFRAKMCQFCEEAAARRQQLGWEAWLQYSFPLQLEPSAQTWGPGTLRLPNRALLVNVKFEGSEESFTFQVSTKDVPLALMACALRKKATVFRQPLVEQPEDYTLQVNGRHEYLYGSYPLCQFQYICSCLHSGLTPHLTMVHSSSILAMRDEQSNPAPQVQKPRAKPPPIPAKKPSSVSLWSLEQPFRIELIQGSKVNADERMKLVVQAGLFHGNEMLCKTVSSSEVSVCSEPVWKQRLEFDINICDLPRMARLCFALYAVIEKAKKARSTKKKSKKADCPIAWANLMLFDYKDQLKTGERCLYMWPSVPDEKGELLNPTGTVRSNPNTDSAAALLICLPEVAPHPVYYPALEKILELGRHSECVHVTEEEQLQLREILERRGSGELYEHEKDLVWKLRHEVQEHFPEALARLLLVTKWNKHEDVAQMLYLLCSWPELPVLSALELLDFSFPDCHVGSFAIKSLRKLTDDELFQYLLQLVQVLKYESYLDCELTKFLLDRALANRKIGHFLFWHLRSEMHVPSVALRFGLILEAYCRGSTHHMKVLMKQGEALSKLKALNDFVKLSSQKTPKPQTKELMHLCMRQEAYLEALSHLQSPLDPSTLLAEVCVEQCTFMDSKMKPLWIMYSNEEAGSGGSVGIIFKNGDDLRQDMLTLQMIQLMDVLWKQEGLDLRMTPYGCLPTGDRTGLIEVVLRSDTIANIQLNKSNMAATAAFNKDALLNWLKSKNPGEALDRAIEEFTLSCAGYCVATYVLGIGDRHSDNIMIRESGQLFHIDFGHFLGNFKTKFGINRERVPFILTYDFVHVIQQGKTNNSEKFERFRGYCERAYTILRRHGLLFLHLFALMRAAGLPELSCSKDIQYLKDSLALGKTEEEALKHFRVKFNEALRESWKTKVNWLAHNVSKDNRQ
Experiment: Inhibition of PI3Kdelta in human SU-DHL6 cells
Type: cell-based
endpoint: IC50

Task: Given the compound "C[C@H](Nc1nc(N)nc(N)c1C#N)c1cn2ncc(Cl)c2nc1-c1cccc(F)c1" , write its reported IC50.
Result: < 20 nM
